Cited source for all entries: paper PMC9934649

Target: CDKL5 (Homo sapiens)
Sequence (O76039 whole entry): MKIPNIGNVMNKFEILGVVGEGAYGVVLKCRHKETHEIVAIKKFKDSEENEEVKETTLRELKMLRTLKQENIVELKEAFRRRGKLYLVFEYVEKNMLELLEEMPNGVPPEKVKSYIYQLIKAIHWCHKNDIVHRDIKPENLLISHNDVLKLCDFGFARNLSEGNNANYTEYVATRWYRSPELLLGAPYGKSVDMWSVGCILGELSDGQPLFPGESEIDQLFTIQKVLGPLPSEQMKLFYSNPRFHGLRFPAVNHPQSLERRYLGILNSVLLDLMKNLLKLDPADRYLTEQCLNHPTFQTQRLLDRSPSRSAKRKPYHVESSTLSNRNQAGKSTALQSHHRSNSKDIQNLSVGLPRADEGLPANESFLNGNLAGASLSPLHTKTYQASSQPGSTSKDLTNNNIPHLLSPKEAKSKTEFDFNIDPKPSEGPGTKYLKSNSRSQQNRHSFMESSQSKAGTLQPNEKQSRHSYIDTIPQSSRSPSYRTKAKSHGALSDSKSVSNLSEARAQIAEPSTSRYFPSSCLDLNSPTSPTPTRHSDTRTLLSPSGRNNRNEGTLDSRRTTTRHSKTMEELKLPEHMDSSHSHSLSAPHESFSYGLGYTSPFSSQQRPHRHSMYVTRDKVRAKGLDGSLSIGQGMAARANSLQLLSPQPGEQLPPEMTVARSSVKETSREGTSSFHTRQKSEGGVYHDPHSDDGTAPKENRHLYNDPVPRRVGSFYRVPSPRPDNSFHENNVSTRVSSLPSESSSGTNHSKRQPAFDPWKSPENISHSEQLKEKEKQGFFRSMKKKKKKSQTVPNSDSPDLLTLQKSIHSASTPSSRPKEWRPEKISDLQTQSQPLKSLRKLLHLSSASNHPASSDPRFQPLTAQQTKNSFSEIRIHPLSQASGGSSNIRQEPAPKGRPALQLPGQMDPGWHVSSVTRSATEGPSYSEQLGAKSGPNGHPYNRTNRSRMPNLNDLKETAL
Experiment: CDKL5 NanoBRET in-cell target engagement assay
pIC50: −log10 of the molar value.
MEASURED QUANTITY: pIC50

> print(dat)
                            chemical.smiles  readout.number
1  O=C(Nc1c[nH]nc1C(=O)NC1CCNCC1)c1cc(F)cc(F)c1            8.34
2  O=C(NCC1CCOCC1)c1n[nH]cc1NC(=O)c1c(F)cccc1F            5.36

###

Target: UniProt:P49840
Sequence (P49840 whole entry): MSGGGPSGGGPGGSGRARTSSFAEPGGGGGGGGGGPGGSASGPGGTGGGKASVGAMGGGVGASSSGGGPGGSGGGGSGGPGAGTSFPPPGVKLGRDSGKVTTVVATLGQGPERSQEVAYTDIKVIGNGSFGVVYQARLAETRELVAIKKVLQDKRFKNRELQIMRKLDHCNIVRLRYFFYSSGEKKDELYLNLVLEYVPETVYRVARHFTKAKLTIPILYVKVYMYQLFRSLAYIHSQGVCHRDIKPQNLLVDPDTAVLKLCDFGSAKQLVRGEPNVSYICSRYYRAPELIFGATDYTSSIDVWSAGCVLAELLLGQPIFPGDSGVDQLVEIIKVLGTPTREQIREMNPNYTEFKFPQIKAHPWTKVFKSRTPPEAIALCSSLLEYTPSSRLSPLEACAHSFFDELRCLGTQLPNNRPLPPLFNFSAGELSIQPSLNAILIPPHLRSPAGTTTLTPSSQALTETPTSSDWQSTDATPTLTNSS
Experiment: GSK3α NanoBRET assay
Details: GSK3α NanoBRET IC50, tracer K8
MEASURED QUANTITY: IC50

> print(dat)
                            chemical.smiles   result
1  O=C(Nc1c[nH]nc1C(=O)NC1CCNCC1)c1cc(F)cc(F)c1  < 30 nM
